Biological target: Gamma-secretase
Assay: Inhibition of amyloid-beta production in Chinese hamster ovary (CHO) cells expressing human amyloid precursor protein (APP)
Could you please report measured IC50 for the items listed next?
Please respond with the number in nM and leave the unit unwritten.

Task: Tell me reported IC50 for COC(=O)[C@H](Cc1ccccc1)NC(=O)[C@H](CC(C)C)NC(=O)N(Cc1ccccc1)C[C@@H](O)[C@H](Cc1ccccc1)NC(=O)OC(C)(C)C (stereo in doubt; 9) , tested with Gamma-secretase.
Output: 400

Task: Could you share what IC50 was measured for COC(=O)[C@H](C)NC(=O)[C@@H](NC(=O)[C@H](CC(C)C)NC(=O)N(Cc1ccccc1)C[C@@H](O)[C@H](Cc1ccccc1)NC(=O)OC(C)(C)C)C(C)C , tested on Gamma-secretase?
Output: 670

Task: What is its IC50 for Gamma-secretase? Entry: COC(=O)[C@H](Cc1ccccc1)NC(=O)[C@@H](NC(=O)N(Cc1ccccc1)C[C@@H](O)[C@H](Cc1ccccc1)NC(=O)OC(C)(C)C)C(C)C
Output: 400

Task: API: value(readout=IC50, system=Gamma-secretase) for record COC(=O)[C@H](Cc1ccccc1)NC(=O)[C@H](C)NC(=O)N(Cc1ccccc1)C[C@@H](O)[C@H](Cc1ccccc1)NC(=O)OC(C)(C)C
Output: 140

Task: Under Gamma-secretase: IC50 value of COC(=O)[C@@H](NC(=O)[C@@H](NC(=O)[C@H](CC(C)C)NC(=O)N(Cc1ccccc1)C[C@@H](O)[C@H](Cc1ccccc1)NC(=O)OC(C)(C)C)C(C)C)C(C)C ?
Output: 530

Task: What is its IC50 for Gamma-secretase? Entry: COC(=O)[C@H](CC(C)C)NC(=O)[C@H](CC(C)C)NC(=O)N(Cc1ccccc1)C[C@@H](O)[C@H](Cc1ccccc1)NC(=O)OC(C)(C)C
Output: 650
